System tested: Aminopeptidase N (Homo sapiens)
Method: In vitro inhibition of aminopeptidase N (APN) activity in intact U937 cells in presence of Ala-pNA and 10e-3 M concentration of compound
Type: cell-based
Particulars: U-937
As shown below, each of these molecules has a reported inhibition value.
State the answer as a number, implicitly in %.

Query (molecule): O=C(O)Cc1cccc2c(=O)c([N+](=O)[O-])c(-c3ccccc3OCc3ccccc3)oc12 ; field requested: inhibition 76

Query (molecule): COCOC(=O)Cc1cccc2c(=O)c3c(oc12)-c1ccccc1OC(=O)N3 ; field requested: inhibition 25

Query (molecule): O=C(O)Cc1cccc2c(=O)c([N+](=O)[O-])c(-c3ccc([N+](=O)[O-])cc3)oc12 ; field requested: inhibition 63

Query (molecule): COc1ccccc1-c1oc2c(CC(=O)O)cccc2c(=O)c1[N+](=O)[O-] ; field requested: inhibition 69

Query (molecule): O=C(O)Cc1cccc2c(O)c3nc4ccccc4c-3oc12 ; field requested: inhibition 10

====

As shown below, each of these compounds has a reported inhibition value.
System tested: Aminopeptidase N (Homo sapiens) (UniProt P15144)
Sequence (P15144 whole entry): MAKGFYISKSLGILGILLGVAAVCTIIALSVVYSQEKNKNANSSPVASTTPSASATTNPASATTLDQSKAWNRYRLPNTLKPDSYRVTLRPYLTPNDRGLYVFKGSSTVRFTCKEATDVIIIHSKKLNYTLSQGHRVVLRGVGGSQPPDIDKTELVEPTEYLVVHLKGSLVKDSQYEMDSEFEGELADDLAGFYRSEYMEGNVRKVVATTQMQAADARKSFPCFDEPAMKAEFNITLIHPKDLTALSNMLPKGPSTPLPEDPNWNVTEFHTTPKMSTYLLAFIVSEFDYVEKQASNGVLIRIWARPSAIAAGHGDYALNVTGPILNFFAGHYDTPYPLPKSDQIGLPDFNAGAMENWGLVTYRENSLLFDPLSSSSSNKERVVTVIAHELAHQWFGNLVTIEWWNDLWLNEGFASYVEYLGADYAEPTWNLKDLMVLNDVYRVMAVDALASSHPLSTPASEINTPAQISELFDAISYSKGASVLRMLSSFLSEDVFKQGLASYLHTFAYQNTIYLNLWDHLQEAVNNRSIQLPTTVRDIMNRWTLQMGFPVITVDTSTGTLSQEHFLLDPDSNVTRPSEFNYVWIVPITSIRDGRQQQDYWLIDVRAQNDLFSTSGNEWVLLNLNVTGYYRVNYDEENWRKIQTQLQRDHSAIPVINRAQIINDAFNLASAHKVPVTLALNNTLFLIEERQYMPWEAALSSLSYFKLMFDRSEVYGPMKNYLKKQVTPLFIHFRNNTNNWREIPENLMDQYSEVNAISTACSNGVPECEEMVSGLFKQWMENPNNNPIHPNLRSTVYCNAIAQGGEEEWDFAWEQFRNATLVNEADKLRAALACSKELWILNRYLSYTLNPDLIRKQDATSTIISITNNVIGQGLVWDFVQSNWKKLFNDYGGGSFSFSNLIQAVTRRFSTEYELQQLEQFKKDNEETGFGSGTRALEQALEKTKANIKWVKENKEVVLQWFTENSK
Method: In vitro inhibition of aminopeptidase N (APN) activity in intact U937 cells in presence of Ala-pNA and 10e-3 M concentration of compound
Type: cell-based
Particulars: U-937
State the answer as a number, implicitly in %.

Smiles str	Measure unit	inhibition
COc1cccc(-c2oc3c(CC(=O)O)cccc3c(=O)c2[N+](=O)[O-])c1[N+](=O)[O-]	%	75

We now examine a further compound.
Query (compound): O=C(O)Cc1cccc2c(=O)c([N+](=O)[O-])c(-c3ccccc3)oc12 ; field requested: inhibition 68

====

System tested: UniProtKB P15144
Method: In vitro inhibition of aminopeptidase N (APN) activity in intact U937 cells in presence of Ala-pNA and 10e-3 M concentration of compound
Format: cell-based
Particulars: U-937
Assay endpoint: inhibition (%)
State the answer as a number, implicitly in %.

Compound	Assay endpoint	Experimental value
CC(C)C[C@H](NC(=O)[C@@H](O)[C@H](N)Cc1ccccc1)C(=O)O [UBENIMEX]	inhibition	85
COCOC(=O)Cc1cccc2c(=O)c([N+](=O)[O-])c(-c3ccccc3OCc3ccccc3)oc12	inhibition	32
COc1ccc([N+](=O)[O-])c(-c2oc3c(CC(=O)O)cccc3c(=O)c2[N+](=O)[O-])c1	inhibition	80
O=C(O)Cc1cccc2c(=O)c([N+](=O)[O-])c(-c3cccc([N+](=O)[O-])c3)oc12	inhibition	44
O=C(O)Cc1cccc2c(=O)cc(-c3ccccc3)oc12 [MITOFLAXONE]	inhibition	30

We now examine a further compound.
Query (compound): O=C(O)Cc1cccc2c(=O)c([N+](=O)[O-])c(-c3ccccc3Cl)oc12 ; field requested: inhibition 76

Sourced from ChEMBL document CHEMBL1145072
